- Test system: COMT
- ASSAY: COMT activity (methylation of adrenaline to metanephrine) in rat liver homogenates
- Format: biochemical
- CONDITION: rat liver homogenate; test compound 3 μM; means±SEM, n=4-8
I'd be grateful if you could share measured COMT activity, Liver (% of control) for these entries.

Lab note: measured COMT activity, Liver (% of control) of `O=C1CCCc2cc(O)c(O)c([N+](=O)[O-])c21` was 1.2 ± 0.2 % of control

Lab note: measured COMT activity, Liver (% of control) of O=C1CCc2cc(O)c(O)c([N+](=O)[O-])c21 [Compound 2, 5,6-Dihydroxy-7-nitro-indan-1-one] was 1.3 ± 0.7 % of control

Lab note: measured COMT activity, Liver (% of control) of `CCOC(=O)Oc1ccc(C(=O)CCCc2ccccc2)c([N+](=O)[O-])c1OC(=O)OCC` was 0.6 ± 0.3 % of control

Lab note: measured COMT activity, Liver (% of control) of `O=C1C(=Cc2ccc(O)c(O)c2)Cc2cc(O)c(O)c([N+](=O)[O-])c21` was 0.6 ± 0.0 % of control

Lab note: measured COMT activity, Liver (% of control) of `O=C(CCCc1ccccc1)c1ccc(O)c(O)c1[N+](=O)[O-]` was 0.5 ± 0.0 % of control

Lab note: measured COMT activity, Liver (% of control) of O=[N+]([O-])c1c(O)c(O)cc2c1C(=NO)CC2 [Compound 6, 5,6-Dihydroxy-7-nitro-indan-1-one Oxime] was 1.77 ± 0.1 % of control

Lab note: measured COMT activity, Liver (% of control) of CC1CC(C)CN(CCC(=O)c2ccc(O)c(O)c2[N+](=O)[O-])C1 (centres unmarked) was 23. ± 0.3 % of control

Lab note: measured COMT activity, Liver (% of control) of `CN(C)c1ccc(C=C2CCc3cc(O)c(O)c([N+](=O)[O-])c3C2=O)cc1` was 9.0 ± 1.6 % of control
